- Tested on: ULK1
- Measurement context: concentration: 1 μM, replicates: in singlicate; n = 1;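 also: KINOMEscan kinase panel screen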

Compound	%Inh
Cc1cc(-c2ccnc(Nc3cccc(C#N)c3)n2)cc(C)c1O	1%
Cl.O=C(Nc1ccc(Oc2ccc3[nH]c(NC(=O)c4ccco4)nc3c2)cc1)Nc1cc(C(F)(F)F)ccc1F	24%
Nc1ncc(-c2cn[nH]c2)c2scc(-c3ccc4c(c3)CCN4C(=O)Cc3ccccc3)c12	9%
Cc1cccc(Nc2nc(N[C@H]3CCCC[C@H]3N)ncc2C(N)=O)c1.Cl	72%
CC(C)NCC(Cc1ccccc1)NC(=O)c1cc(Br)c(-c2ccnc3[nH]ccc23)s1.Cl.Cl (centres unmarked)	0%
CCn1cnc2c(NCc3ccccc3)ncnc21	0%
N#CC1(c2cccc(C(=O)Nc3cccc(Oc4ccc5nc(NC(=O)C6CC6)sc5n4)c3)c2)CC1	0%
CCOc1nccc(-c2c(-c3ccc(F)cc3)ncn2C2CCNCC2)n1	28%

---

- Test system: ROCK1
- Measurement context: concentration: 1 μM, replicates: in singlicate; n = 1

Compound	%Inh / %
COc1cc(Nc2nccc(N3CCC(NC(=O)Nc4ccc5c(c4)OCO5)C3)n2)cc(OC)c1OC (centres unmarked)	25
Cn1cc(-c2ccc3c(c2)CCN3C(=O)Cc2cc(F)cc(F)c2F)c2c(N)ncnc21	36
Cc1ccc(-c2ccc3occ(-c4ccc(S(C)=O)cc4)c3c2)nn1 (centres unmarked)	6
Cc1ccc(Nc2ccnc(Nc3ccc(C)c(F)c3)n2)cc1O.Cl	22
O=C(O)C(F)(F)F.O=c1[nH]ccc2nc(N[C@@H]3CCNC3)nc(Nc3ccc4c(c3)S(=O)(=O)CC4)c12	99.7
O=C(Nc1c(F)cccc1F)c1cc(C(=O)c2ccccc2F)c[nH]1	0
CC(=O)Nc1cn2nc(Oc3cccc(NC(=O)c4cccc(C(F)(F)F)c4)c3)ccc2n1	0
CC(C)c1nc(-c2cccc(NS(=O)(=O)c3c(F)cccc3F)c2)c(-c2ccnc(Nc3ccc(N4CCOCC4)nc3)n2)s1.Cl	6

---

In this section we review reported %Inh values for a set of compounds.
- System: AKT2
- Measurement context: concentration: 1 μM, replicates: in singlicate; n = 1

Compound	Tested on	%Inh
Cn1cc(-c2cnc(N)c3c(-c4ccc5c(c4)CCN5C(=O)Cc4ccccc4)csc23)cn1	AKT2	0%
COc1cccc(-c2nc(-c3ccccc3)[nH]c2-c2ccncc2)c1	AKT2	0%
Fc1cc(Cl)ccc1Nc1ccnc2cc(-c3ccc(CN4CCOCC4)o3)ccc12	AKT2	0%
CNc1nccc(-c2ccc3c(N)n[nH]c3c2)n1	AKT2	0%
CS(=O)(=O)c1cccc(CNc2nc(Nc3ccc4c(c3)CCC(=O)N4)ncc2C(F)(F)F)c1	AKT2	0%
COc1cccc2c(-c3ccncc3)c(-c3ccc(F)cc3)nn12	AKT2	34%
CCn1c(-c2nonc2N)nc2c(-c3ccccc3)ncc(OCCCN)c21.O=C(O)C(F)(F)F.O=C(O)C(F)(F)F	AKT2	75%
N#Cc1cnc2cc(-c3cnc(CNCCN4CCOCC4)s3)ccc2c1Nc1ccc(Oc2ccccc2)cc1	AKT2	0%
Nc1ncc(-c2cn[nH]c2)c2scc(-c3ccc4c(c3)CCN4C(=O)Cc3ccccc3)c12	AKT2	2%
Cc1ccc(O)cc1Nc1ccnc2ccc(C(C)(C)C)cc12	AKT2	29%
CSc1ccc(NC2=C(c3ccc(Cl)cc3)C(=O)NC2=O)cc1	AKT2	8%
COc1cccc(CC(=O)N2CCc3cc(-c4cn(C)c5ncnc(N)c45)ccc32)c1	AKT2	8%
O=C(Nc1n[nH]c2nc(-c3cccc(O)c3)ccc12)C1CC1	AKT2	0%
CN(c1ccc(NC(=O)Nc2cccc(Cl)c2)cc1)c1ccnc(N)n1.Cl	AKT2	3%
N#CC1(c2cccc(C(=O)Nc3cccc(Oc4ccc5nc(NC(=O)C6CC6)sc5n4)c3)c2)CC1	AKT2	6%
Cc1cc(-c2c(-c3ccc(F)cc3)ncn2CCCN2CCOCC2)nc(N)n1	AKT2	0%
CCNC(=O)/C=C/c1n[nH]c2cc(Sc3ccccc3C(=O)NC)ccc12	AKT2	18%
Cc1cc(-c2ccnc(Nc3cccc(C#N)c3)n2)cc(C)c1O	AKT2	0%
CN(c1ccc(NC(=O)N2CCN(CCCN3CCOCC3)CC2)cc1)c1ccnc(Nc2ccc(CS(C)(=O)=O)cc2)n1.Cl	AKT2	0%
CCn1cnc2c(NCc3ccccc3)ncnc21	AKT2	0%
COc1cccc(C2=C(Nc3cccc(O)c3)C(=O)NC2=O)c1	AKT2	7%
Cc1ccc(C)c(NC(=O)Nc2ccc(C)c(-c3ccc(C(=O)Nc4ccncc4)cc3)c2)c1	AKT2	0%
Cc1nn2c(=O)cc(N3CCO[C@H](C)C3)nc2n1Cc1cccc(Cl)c1Cl	AKT2	7%
COc1ccc(C2=C(Nc3cccc(O)c3)C(=O)NC2=O)cc1	AKT2	12%
O=C(O)C(F)(F)F.O=c1[nH]ccc2nc(N[C@@H]3CCNC3)nc(Nc3ccc4c(c3)S(=O)(=O)CC4)c12	AKT2	0%
CN1CCN(Cc2ccc(NC(=O)Nc3ccc(N(C)c4ccnc(Nc5ccc(CS(C)(=O)=O)cc5)n4)cc3)cc2)CC1.Cl	AKT2	0%
Cl.Cl.NCC(NC(=O)c1cc(-c2cccnc2)c(-c2ccnc3[nH]ccc23)s1)c1ccccc1 (stereo not shown)	AKT2	10%
Cc1cccc(Nc2nc(N[C@H]3CCCC[C@H]3N)ncc2C(N)=O)c1.Cl	AKT2	28%
COc1cc(Nc2ccnc3cc(-c4ccncc4)ccc23)cc(OC)c1OC.Cl	AKT2	10%
CC(C)NCC(Cc1ccccc1)NC(=O)c1cc(Br)c(-c2ccnc3[nH]ccc23)s1.Cl.Cl (stereo not shown)	AKT2	73%
Cl.N#CCc1ccc(Nc2nccc(Nc3ccc(Oc4ccccc4)cc3)n2)cc1	AKT2	4%
Cc1ccc(-c2ccc3occ(-c4ccc(S(C)=O)cc4)c3c2)nn1 (stereo not shown)	AKT2	12%
CN(C)CCOc1ccc(-c2cc(-c3ccc(Cl)c(O)c3)c(-c3ccncc3)[nH]2)cc1.Cl.Cl	AKT2	0%
COC(=O)Nc1nc2ccc(Oc3ccc(NC(=O)Nc4cc(C(F)(F)F)ccc4F)cc3)cc2[nH]1.Cl	AKT2	100%

---

- Tested on: CDK4-cyclinD1
- Measurement context: concentration: 1 μM, replicates: in singlicate; n = 1
Experimental endpoint: %Inh (%)

Compound	Tested on	Reported value
Fc1cc(Cl)ccc1Nc1ccnc2cc(-c3ccc(CN4CCOCC4)o3)ccc12	CDK4-cyclinD1	0
Cc1ccc(O)cc1Nc1ccnc2cc(-c3ccc(CN4CCCCC4)o3)ccc12	CDK4-cyclinD1	0
CC(C)c1nc(-c2cccc(NS(=O)(=O)c3c(F)cccc3F)c2)c(-c2ccnc(Nc3ccc(N4CCOCC4)nc3)n2)s1.Cl	CDK4-cyclinD1	96.2
O=C(Nc1n[nH]c2cc(-c3cccs3)ccc12)C1CC1	CDK4-cyclinD1	0
Cc1ccc(-c2ccc3occ(-c4ccc(S(C)=O)cc4)c3c2)nn1 (centres unmarked)	CDK4-cyclinD1	0
COc1cc(Nc2ccnc3cc(-c4ccncc4)ccc23)cc(OC)c1OC.Cl	CDK4-cyclinD1	39
Nc1ncc(-c2cn[nH]c2)c2scc(-c3ccc4c(c3)CCN4C(=O)Cc3ccccc3)c12	CDK4-cyclinD1	0
CN(C)c1ncnc2nc[nH]c12	CDK4-cyclinD1	0
O=C(Nc1n[nH]c2nc(-c3ccccc3O)ccc12)C1CC1	CDK4-cyclinD1	25
CS(=O)(=O)c1cccc(CNc2nc(Nc3ccc4c(c3)CCC(=O)N4)ncc2C(F)(F)F)c1	CDK4-cyclinD1	0
Cl.O=C(Nc1ccc(Oc2ccc3[nH]c(NC(=O)c4ccco4)nc3c2)cc1)Nc1cc(C(F)(F)F)ccc1F	CDK4-cyclinD1	0
Cl.Cl.NCC(NC(=O)c1cc(-c2cccnc2)c(-c2ccnc3[nH]ccc23)s1)c1ccccc1 (centres unmarked)	CDK4-cyclinD1	39
CC(C)NCC(Cc1ccccc1)NC(=O)c1cc(Br)c(-c2ccnc3[nH]ccc23)s1.Cl.Cl (centres unmarked)	CDK4-cyclinD1	0
COc1cc(Nc2nccc(N3CCC(NC(=O)Nc4ccc5c(c4)OCO5)C3)n2)cc(OC)c1OC (centres unmarked)	CDK4-cyclinD1	0
CC(C)(C)c1ccc(C(=O)Nc2cn3cc(-n4ccnc4)ccc3n2)cc1	CDK4-cyclinD1	0
c1ccc(Oc2ccc(Nc3ccnc4cc(-c5ccc(CN6CCCCC6)o5)ccc34)cc2)nc1	CDK4-cyclinD1	0
Cc1nn2c(=O)cc(N3CCO[C@H](C)C3)nc2n1Cc1cccc(Cl)c1Cl	CDK4-cyclinD1	53

---

In this section we review reported %Inh values for a set of compounds.
- System: RSK3(Kin.Dom.2-C-terminal)
- Construct: gene RPS6KA2
- Measurement context: concentration: 1 μM, replicates: in singlicate; n = 1

Compound	%Inh (%)
CNc1nccc(-c2ccc3c(N)n[nH]c3c2)n1 [GSK2206003]	5
Cc1ccc(O)cc1Nc1ccnc2cc(-c3ccc(CN4CCCCC4)o3)ccc12 [GW557777]	29
COc1cc(Nc2nccc(N3CCC(NC(=O)Nc4ccc5c(c4)OCO5)C3)n2)cc(OC)c1OC (centres unmarked) [GSK1379766]	5
O=C(O)C(F)(F)F.O=c1[nH]ccc2nc(N[C@@H]3CCNC3)nc(Nc3cc(Cl)cc(Cl)c3)c12 [GSK2188764]	55
Nc1ncc(-c2ccc3nccc(-c4ccncc4)c3c2)cc1S(=O)(=O)N1CCCCC1 [GSK1693850]	24
Cl.N#CCc1ccc(Nc2nccc(Nc3ccc(Oc4ccccc4)cc3)n2)cc1 [GW639905]	0
Cc1ccc(NC(=O)c2ccnc(N3CCCCC3)c2)cc1-c1ccc(C(=O)NCC2CC2)cc1 [GW775610]	15
Cl.Cl.NC(CNC(=O)c1cc(Br)c(-c2ccnc3[nH]ccc23)s1)c1ccccc1 (centres unmarked) [GSK1322949]	14
COc1cccc(-c2nc(-c3ccccc3)[nH]c2-c2ccncc2)c1 [SB-610250]	0
CN(c1ccc(NC(=O)N2CCN(CCCN3CCOCC3)CC2)cc1)c1ccnc(Nc2ccc(CS(C)(=O)=O)cc2)n1.Cl [GW830899]	0
Cc1nn2c(=O)cc(N3CCO[C@H](C)C3)nc2n1Cc1cccc(Cl)c1Cl [GSK2373693]	4
CCn1cnc2c(NCc3ccccc3)ncnc21 [SKF-96418]	0
CCn1c(-c2nonc2N)nc2c(-c3ccccc3)ncc(OCCCN)c21.O=C(O)C(F)(F)F.O=C(O)C(F)(F)F [GSK260205]	1
CN(C)CCOc1ccc(-c2cc(-c3ccc(Cl)c(O)c3)c(-c3ccncc3)[nH]2)cc1.Cl.Cl [SB-684387]	0
Cn1cc(-c2cnc(N)c3c(-c4ccc5c(c4)CCN5C(=O)Cc4ccccc4)csc23)cn1 [GSK2593074]	7
NCCC(NC(=O)c1cc(Br)c(-c2ccnc3[nH]ccc23)s1)c1ccccc1.O=C(O)C(F)(F)F.O=C(O)C(F)(F)F (centres unmarked) [GSK1307810]	0
CC(C)c1nc(-c2cccc(NS(=O)(=O)c3c(F)cccc3F)c2)c(-c2ccnc(Nc3ccc(N4CCOCC4)nc3)n2)s1.Cl [GSK1723980]	0
